biological target: F508delCFTR (Homo sapiens, UniProt P13569, DEL508-508); construct: expressed in transfected cells; host or cells: CFBE4lo-F508delCFTR-HRP cells (human lung derived epithelial cell line, doxycycline-inducible); assay: Cell Surface Expression-Horse Radish Peroxidase (CSE-HRP) Assay; type: cell-based; conditions: with co-corrector 2 μM 3-[(2R,4R)-4-({[1-(2,2-difluoro-1,3-benzodioxol-5-yl)cyclopropyl]carbonyl}amino)-7-methoxy-3,4-dihydro-2H-chromen-2-yl]benzoic acid; CFBE4lo-F508delCFTR-HRP cells, 18-24 hours at 33° C.; read-out: EC50 (with co-corrector)
Sequence (P13569 with tags, fused parts or gaps DEL508-508): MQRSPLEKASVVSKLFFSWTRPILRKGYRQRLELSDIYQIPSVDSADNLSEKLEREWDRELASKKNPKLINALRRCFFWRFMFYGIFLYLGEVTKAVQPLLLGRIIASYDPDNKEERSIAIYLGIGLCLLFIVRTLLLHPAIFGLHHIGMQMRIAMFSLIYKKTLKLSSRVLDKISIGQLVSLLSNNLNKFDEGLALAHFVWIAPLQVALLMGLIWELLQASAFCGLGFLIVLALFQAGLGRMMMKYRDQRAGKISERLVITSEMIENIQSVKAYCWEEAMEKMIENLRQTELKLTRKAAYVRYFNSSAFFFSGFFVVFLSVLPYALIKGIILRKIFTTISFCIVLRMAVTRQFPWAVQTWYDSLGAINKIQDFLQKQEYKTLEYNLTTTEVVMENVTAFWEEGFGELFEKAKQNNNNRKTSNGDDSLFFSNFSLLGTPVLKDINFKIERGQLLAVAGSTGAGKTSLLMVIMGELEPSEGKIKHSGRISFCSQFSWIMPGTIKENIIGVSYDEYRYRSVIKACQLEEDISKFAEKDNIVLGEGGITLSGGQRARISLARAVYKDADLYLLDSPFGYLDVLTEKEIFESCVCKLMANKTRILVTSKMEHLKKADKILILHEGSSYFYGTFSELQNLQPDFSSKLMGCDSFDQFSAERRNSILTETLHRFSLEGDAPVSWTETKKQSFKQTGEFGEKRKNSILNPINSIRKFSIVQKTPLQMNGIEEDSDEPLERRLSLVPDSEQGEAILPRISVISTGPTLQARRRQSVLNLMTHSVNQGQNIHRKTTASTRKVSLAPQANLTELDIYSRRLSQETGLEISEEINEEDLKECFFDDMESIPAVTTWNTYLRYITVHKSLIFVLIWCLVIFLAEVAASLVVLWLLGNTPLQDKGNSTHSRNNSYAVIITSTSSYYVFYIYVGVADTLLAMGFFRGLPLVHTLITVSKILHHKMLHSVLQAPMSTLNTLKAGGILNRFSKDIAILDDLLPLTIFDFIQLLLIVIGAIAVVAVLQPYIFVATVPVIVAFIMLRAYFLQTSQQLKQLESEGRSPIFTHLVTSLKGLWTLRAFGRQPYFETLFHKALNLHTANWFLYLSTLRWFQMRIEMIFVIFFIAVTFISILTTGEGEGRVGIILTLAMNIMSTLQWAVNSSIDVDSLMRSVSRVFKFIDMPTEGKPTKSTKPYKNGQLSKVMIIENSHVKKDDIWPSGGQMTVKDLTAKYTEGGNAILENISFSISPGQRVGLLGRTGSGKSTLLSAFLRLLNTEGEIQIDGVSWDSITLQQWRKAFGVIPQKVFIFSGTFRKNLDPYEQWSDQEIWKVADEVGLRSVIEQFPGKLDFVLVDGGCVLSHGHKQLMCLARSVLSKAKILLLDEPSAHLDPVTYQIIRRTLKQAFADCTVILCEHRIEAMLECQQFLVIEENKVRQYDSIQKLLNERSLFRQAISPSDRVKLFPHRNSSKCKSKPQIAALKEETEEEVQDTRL
measure_name: EC50

Inquiry: Item "COc1ccc(C2CCC2)c2c1[C@@H](C(=O)NS(=O)(=O)c1cccc3[nH]ccc13)CCO2" has what recorded EC50?
Reply text: < 3 µM

Inquiry: COc1ccc(Br)c2c1CCOC2C(=O)NS(=O)(=O)c1cccc2ccccc12 (stereo not shown) , same question.
Reply text: < 3 µM

Inquiry: "CCSC[C@H]1C[C@@](C(=O)NS(=O)(=O)c2cccc3ccccc23)(c2ccccc2)c2ccccc2O1" , same question.
Reply text: < 3 µM

Inquiry: "C[C@@]1(C(=O)NS(=O)(=O)c2cccc3ccccc23)COc2cc3c(cc21)OC(F)(F)O3" , same question.
Reply text: 3 to 10 µM

###

biological target: F508delCFTR (Homo sapiens, UniProt P13569, DEL508-508); construct: expressed in transfected cells; host or cells: CFBE4lo-F508delCFTR-HRP cells (human lung derived epithelial cell line, doxycycline-inducible); assay: Cell Surface Expression-Horse Radish Peroxidase (CSE-HRP) Assay; format: cell-based; conditions: test compound without co-corrector; maximum at any tested concentration (up to 20 μM), normalized to on-plate positive control (2 μM co-corrector)
Overview of recorded Emax for various compounds

1) CCC1(C(=O)NS(=O)(=O)c2cccc3ccccc23)COc2ccccc21 (stereo not drawn) = < 50%

Kindly consider the entry below.
Inquiry: Item "COc1ccc(C2CCC2)c2c1[C@@H](C(=O)NS(=O)(=O)c1cccc3ccccc13)CO2" has what recorded Emax?
Reply text: ≥ 150%

###

biological target: F508delCFTR (Homo sapiens, UniProt P13569, DEL508-508); construct: expressed in transfected cells; host or cells: CFBE4lo-F508delCFTR-HRP cells (human lung derived epithelial cell line, doxycycline-inducible); assay: Cell Surface Expression-Horse Radish Peroxidase (CSE-HRP) Assay; format: cell-based; conditions: test compound without co-corrector; CFBE4lo-F508delCFTR-HRP cells, 18-24 hours at 33° C., HRP luminescence readout; read-out: EC50 (without co-corrector)
measure_name: EC50

Sample records with EC50:
1) COc1ccc(Br)c2c1[C@@H](C(=O)NS(=O)(=O)c1cccc3cnn(C)c13)CCO2 = 3 to 10 µM
2) COc1ccc(Br)c2c1[C@H](C(=O)NS(=O)(=O)c1cccc3cnn(C)c13)CCO2 = < 3 µM

Kindly consider the entry below.
Inquiry: Item "COc1ccc(C2CCC2)c2c1[C@H](C(=O)NS(=O)(=O)c1cccc3ncccc13)CC(C)(C)O2" has what recorded EC50?
Reply text: < 3 µM

###

target: F508delCFTR (Homo sapiens, UniProt P13569, DEL508-508); construct: expressed in transfected cells; host or cells: CFBE4lo-F508delCFTR-HRP cells (human lung derived epithelial cell line, doxycycline-inducible); assay: Cell Surface Expression-Horse Radish Peroxidase (CSE-HRP) Assay; format: cell-based; settings: with co-corrector 2 μM; maximum at any tested concentration (up to 20 μM), normalized to on-plate positive control (2 μM co-corrector)
measure_name: Maximum % activity (with co-corrector)

Sample records with Maximum % activity (with co-corrector):
1) COc1cccc2c1C(C(=O)NS(=O)(=O)c1cccc3ccccc13)CCO2 (centres unmarked) = +++ (≥350)
2) O=C(NS(=O)(=O)c1cccc2ccccc12)C1COc2c(Br)cccc21 (centres unmarked) = ++ (≥150 and <350)
3) COc1ccc(C2CC2)c2c1C(C(=O)NS(=O)(=O)c1cccc3ccccc13)CCO2 (centres unmarked) = +++ (≥350)
4) COc1ccc(Br)c2c1C(C(=O)NS(=O)(=O)c1cccc3cccnc13)CCO2 (centres unmarked) = +++ (≥350)
5) COc1ccc(C2CCC2)c2c1[C@H](C(=O)NS(=O)(=O)c1cccc3c1CCCN3)CC(C)(C)O2 (single isomer, unassigned) = +++ (≥350)

Inquiry: Item "COc1ccc(C2CCC2)c2c1[C@@H](C(=O)NS(=O)(=O)c1cccc3ccccc13)CCO2" has what recorded Maximum % activity (with co-corrector)?
Reply text: +++ (≥350)

Inquiry: COc1ccc(Cl)c2c1[C@H](C(=O)NS(=O)(=O)c1cccc3ccccc13)CO2 (single isomer, unassigned) , same question.
Reply text: +++ (≥350)

###

Overview of recorded pEC50 for various compounds
Target: F508delCFTR (Homo sapiens, UniProt P13569, DEL508-508)
Construct: expressed in transfected cells; host or cells: CFBE4lo-F508delCFTR-HRP cells (human lung derived epithelial cell line, doxycycline-inducible)
Assay: Cell Surface Expression-Horse Radish Peroxidase (CSE-HRP) Assay
Assay type: cell-based
Details: test compound without co-corrector; CFBE4lo-F508delCFTR-HRP cells, 18-24 hours at 33° C., HRP luminescence readout; read-out: EC50 (without co-corrector)
Excerpt: Cell Surface Expression-Horse Radish Peroxidase (CSE-HRP) Assay […] The maximum % activity achieved for the test compound either without or with a co-corrector at any tested concentration is presented in Table 1 along with the respective EC50's calculated using the following general sigmoidal curve with variable Hill slope equation (described as Model 42 in the Accelrys® Assay Explorer v3.3 software): y=(a−d)/(1+(x/c)^b)+d […]
pEC50: −log10 of the molar value.

Sample records with pEC50:
1. COc1ccc(C2CCC2)c2c1[C@H](C(=O)NS(=O)(=O)c1cccc3cnn(C)c13)CO2 = > 5.52
2. COc1ccc(C2CCC2)c2c1[C@H](C(=O)NS(=O)(=O)c1cccc3[nH]ccc13)CCO2 = > 5.52
3. O=C(NS(=O)(=O)c1cccc2ccccc12)C1CCOc2c(Cl)cccc21 (centres unmarked) = 5.00 to 5.52
4. COc1ccc(Br)c2c1C(C(=O)NS(=O)(=O)c1cccc3ccccc13)CC(C)(C)O2 (centres unmarked) = > 5.52

Inquiry: Item "COc1ccc(C2CCC2)c2c1[C@H](C(=O)NS(=O)(=O)c1cccc3ccccc13)CCO2" has what recorded pEC50?
Reply text: > 5.52

Inquiry: COc1ccc(C2CCC2)c2c1C(C(=O)NS(=O)(=O)c1cccc3ccccc13)OCC2 (centres unmarked) , same question.
Reply text: 5.00 to 5.52

Inquiry: COc1ccc(C2CCC2)c2c1[C@H](C(=O)NS(=O)(=O)c1cccc3c1CCCN3)CC(C)(C)O2 (single isomer, unassigned) , same question.
Reply text: > 5.52

Inquiry: COc1ccc(Br)c2c1OCC2C(=O)NS(=O)(=O)c1cccc2ccccc12 (centres unmarked) , same question.
Reply text: 5.00 to 5.52

Inquiry: CCC1(C(=O)NS(=O)(=O)c2cccc3ccccc23)COc2ccccc21 (centres unmarked) , same question.
Reply text: > 5.52

Inquiry: "COc1ccc(C2CCC2)c2c1[C@@H](C(=O)NS(=O)(=O)c1cccc3c1CCCN3)CCO2" , same question.
Reply text: 5.00 to 5.52

Inquiry: COc1ccc(C2CCC2)c2c1OCCC2C(=O)NS(=O)(=O)c1cccc2ncccc12 (centres unmarked) , same question.
Reply text: 5.00 to 5.52

###

target: F508delCFTR (Homo sapiens, UniProt P13569, DEL508-508); construct: expressed in transfected cells; host or cells: CFBE4lo-F508delCFTR-HRP cells (human lung derived epithelial cell line, doxycycline-inducible); experiment: Cell Surface Expression-Horse Radish Peroxidase (CSE-HRP) Assay; type: cell-based; details: test compound without co-corrector; maximum at any tested concentration (up to 20 μM), normalized to on-plate positive control (2 μM co-corrector)
measure_name: Emax

Sample records with Emax:
1. COc1cccc2c1C(C(=O)NS(=O)(=O)c1cccc3ccccc13)CC1(CCCCC1)O2 (stereo not drawn) = ≥ 150%
2. Cc1ccccc1S(=O)(=O)NC(=O)C1COc2ccc(Cl)cc21 (stereo not drawn) = < 50%
3. COc1ccc(C2CCC2)c2c1C(C(=O)NS(=O)(=O)c1cccc3ncccc13)OCC2 (stereo not drawn) = ≥ 150%

Inquiry: Could you share what Emax was measured for COc1ccc(Br)c2c1C(C(=O)NS(=O)(=O)c1cccc3ccccc13)CC1(CCCCC1)O2 (stereo not drawn) , tested on F508delCFTR (Homo sapiens, UniProt P13569, DEL508-508)?
Reply text: ≥ 150%

Inquiry: O=C(NS(=O)(=O)c1cccc2ccccc12)C1(c2ccccc2)CCOc2ccc(Br)cc21 (stereo not drawn) , same question.
Reply text: ≥ 150%

Inquiry: COc1ccc2c(c1)C(C(=O)NS(=O)(=O)c1cccc3ccccc13)(c1ccccc1)CCO2 (stereo not drawn) , same question.
Reply text: 50 to 150%

Inquiry: O=C(NS(=O)(=O)c1cccc2ccccc12)C1(c2ccccc2)CCOc2ccc(Cl)cc21 (stereo not drawn) , same question.
Reply text: ≥ 150%

Inquiry: COc1ccc(Br)c2c1C(C(=O)NS(=O)(=O)c1cccc3cccnc13)CCO2 (stereo not drawn) , same question.
Reply text: 50 to 150%
